biological target: recombinant human S-COMT (Homo sapiens); construct: made in house; experiment: COMT activity inhibition assay (enzymatic activity based fluorescence assay, 3-BTD substrate); type: biochemical
Sequence (P21964 51-271): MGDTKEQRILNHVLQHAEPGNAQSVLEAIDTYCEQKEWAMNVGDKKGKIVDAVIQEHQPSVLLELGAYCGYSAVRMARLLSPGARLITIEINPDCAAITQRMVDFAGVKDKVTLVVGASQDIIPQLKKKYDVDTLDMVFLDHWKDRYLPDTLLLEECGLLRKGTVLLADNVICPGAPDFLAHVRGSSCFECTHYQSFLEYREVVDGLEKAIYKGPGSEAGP
pIC50: −log10 of the molar value.
Assign true whenever pIC50 does not fall below 5; assign false whenever it does.

Completed entries (count: 2):
INSERT INTO results (compound, target_or_test_system, class_assignment) VALUES
  ('CC1=C(O)C(=O)C=C2C1=CC=C1[C@@]2(C)CC[C@@]2(C)[C@@H]3C[C@](C)(C(=O)O)CC[C@]3(C)CC[C@]12C [Compound 18, Celastrol]', 'recombinant human S-COMT (Homo sapiens)', 'true'),
  ('C[C@H]1[C@H](C)CC[C@]2(C(=O)O)CC[C@]3(C)C(=CC[C@@H]4[C@@]5(C)C[C@@H](O)[C@H](O)[C@@](C)(CO)[C@@H]5CC[C@]43C)[C@H]12 [Compound 8, Asiatic acid]', 'recombinant human S-COMT (Homo sapiens)', 'false');

# evaluate next
// query Record O=c1c(O)c(-c2ccc(O)c(O)c2)oc2cc(O)cc(O)c12 [Quercetin, reference compound] ; criterion: pIC50 no lower than 5. Met?
// result true
